Each entry below carries its reported mouse B lymphocyte proliferation (OD450 nm), antibody 20 nM.
- experimentalSystem: mouse BLyS protein (mouse, UniProt Q9WU72 69-309)
- Sequence (Q9WU72 69-309): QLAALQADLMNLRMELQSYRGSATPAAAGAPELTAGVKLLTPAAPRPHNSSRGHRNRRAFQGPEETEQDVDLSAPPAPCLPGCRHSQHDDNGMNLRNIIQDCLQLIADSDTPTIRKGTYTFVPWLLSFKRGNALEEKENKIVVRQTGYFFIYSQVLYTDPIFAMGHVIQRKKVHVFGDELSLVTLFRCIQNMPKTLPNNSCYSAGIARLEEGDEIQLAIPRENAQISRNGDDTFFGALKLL
- experimentNotes: cell-based or functional assay
reportedProperty: mouse B lymphocyte proliferation (OD450 nm), antibody 20 nM

>>> observedresult("L1D12 (antibody, V domains shown, From a human naive scFv phage library; also called human BLyS antibody L1D12; LID12) VH: QVQLVQSGGGLVQPGGSLRLSCAASGFTVSSNYMSWVRQAPGKGLEWVSVIYSGGSTYYADSVKGRFTISRDNSKNTLYLQMNSLRAEDTAVYYCARGFHDILTGYGMDVWGQGTTVTVSS VL: SSELTQDPAVSVALGQTVRITCQGDSLRNYYAGWYQQKPGQAPVLVIYGKNNRPSGIPDRFSGSSSGNTASLTITGTQAEDEADYYCSSRDNSGTHLVEFGGGTKLTVL")
"2460 OD450 nm"
>>> observedresult("67A2E1D10 (antibody, V domains shown, Mouse hybridoma monoclonal antibody purified on Protein G) VH: EVQLQQSGAELVKPGASVKLSCTASGFNIKNYYMHWVKQRTEEGLEWIGRIDPEDGETKYAPKFQAKATITADTSSNTAYLQLSSLTSEDTAVYFCARKGYYGNYGAWFAYWGQGTLVTVSA VL: DIQMTQSPASLSVSVGETVTITCRASEDLYSNLAWYQQKQGKSPQLLVYAATFLADGVPSRFSGSGSGTQYSLKINSLQSEDFGNYYCQHFWGTPPTFGGGTKLEIK")
"2240 OD450 nm"
>>> observedresult("20D1B6E9E5 (antibody, V domains shown, Mouse hybridoma monoclonal antibody purified on Protein G) VH: EVQLQQSVAELVRPGASVKLSCTASDFNIKNTYIHWVKQRPEQGLEWIGRIDPVNGNTKYAPKFQDKATIIVDTYSNTAYLQLSSLASEDTAVYYCARWPITTIVATDWYFDVWGTGTTVTVSS VL: DVLMTQTQLALPVRLGEQASISCRSSQSIVNSNGNTYLEWYLQKPGQSPKLLIYKVSNRFSGVPDRFSGSGSGTDFTLKISRVEAEDLGVYYCFQGSHVPWTFGGGTKLEIK")
"2240 OD450 nm"
>>> observedresult("89A2G5E7 (antibody, V domains shown, Mouse hybridoma monoclonal antibody purified on Protein G) VH: QVQLKESGPGLVAPSQSLSITCTVSGLSLNSHDISWIRQPPGKGLEWLGVIWSGGGTKYNSAFMSRLSISKDNSKSQVFLKMNSLHTDDTAIYYCVRTPSMITYSAMDYWGQGTSVTVSS VL: EIVLTQSPALMAASPGEKVTITCSVSSSISSRNLHWYQQKSQTSPKAWIHATSNLASGVPVRFSGSGSGTSYSLTISSMEAEDAATYYCQQWSSYPLTFGSGTKLEIK")
"2640 OD450 nm"
>>> observedresult("L9G7 (antibody, V domains shown, From a human naive scFv phage library; also called human BLyS antibody L9G7) VH: QIQLVQSGAEVKKPGASVKVSCKASGYTFTSYGISWVRQAPGQGLEWMGWISAYNGNTNYAQKLQGRVTMTTDTSTSTAYMELRSLRSDDTAVYYCARTYYDILTGYYYYGMDVWGQGTTVTVSS VL: EIVLTQSPGTLSLSPGERATLSCRTSQSVDTYLAWYQQKPGQAPRLLIYDASNRATGIPARFSGSGSGTDFTLTISSLEPEDFAVYYCQQRSNWPLTFGGGTKVEIK")
"243 OD450 nm"
>>> observedresult("8E7D9C7F5 (antibody, V domains shown, Mouse hybridoma monoclonal antibody purified on Protein G) VH: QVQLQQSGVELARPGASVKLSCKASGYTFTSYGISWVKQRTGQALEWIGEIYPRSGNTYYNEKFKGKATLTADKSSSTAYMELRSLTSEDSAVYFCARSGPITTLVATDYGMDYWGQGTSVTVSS VL: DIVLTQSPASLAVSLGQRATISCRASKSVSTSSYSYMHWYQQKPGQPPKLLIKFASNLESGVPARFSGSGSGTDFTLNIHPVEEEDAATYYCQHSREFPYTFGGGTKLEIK")
"2350 OD450 nm"
>>> observedresult("2-1G11 (antibody, V domains shown, From a human naive scFv phage library; also called human BLyS antibody 2-1G11) VH: EVQLVESRGGVVQPGRSLRLSCAASGFTFSSYGMHWVRQAPGKGLEWVAVISYDGSNKYYADSVKGRFTISRDNSKNTLYLQMNSLRAEDAAVYYCARDRVDILTGYSIYGMDVWGQGTTVTVSS VL: EIVMTQSPATLSLSPGERATLSCRASQSVSSYLAWYQQKPGQAPRLLIYDASKRATGIPARFSGSGSGTDFTLTISSLEPEDFAVYYCQQRSNWPLTFGGGTKVEIK")
"2680 OD450 nm"
>>> observedresult("35E6F7C3 (antibody, V domains shown, Mouse hybridoma monoclonal antibody purified on Protein G) VH: EVQLQQSGAELVKPGASVKLSCTAAGFNIQDTYIHWVKQRPEQGLEWIGRIDPANANTVYDPKFQGKATITADTSSNTAYLQVSSLTSEDTAVYYCASPVITAGFAYWGQGTLVTVSA VL: QIVLTQSPAIMSASPGEKVTMTCGASSSVNYVHWYQQKSGTSPKRWIYDTSKLASGVPARFSGSGSGTSYSLTISSMEAEDAATYYCQQWTRSPLTFGAGTKVELK")
"2560 OD450 nm"
